Test: Solubility screen for Form A in organic solvents
Type: physicochemical
Details: aqueous with cosolvent or surfactant or cyclodextrin, thermodynamic from solid, Methanol: Water (50%); read-out: Solubility
Experimental: A solubility screen for Form A was conducted in 24 solvents. About 5 mg of Form A was placed in each of 24 vials and 5 volume aliquots of the appropriate solvent systems listed in Table 1 were added to the appropriate vial. Between each addition, the mixture was checked for dissolution by visual inspection, and if no dissolution was apparent, the mixture was heated to ca. 40° C. and checked again. […]
Outcome Measure: solubility

Please supply the value of reported solubility for the item CS(=O)(=O)c1ccc(Oc2cc(F)cc(C#N)c2)c2c1[C@H](O)C(F)(F)C2 [Form A]
< 2000 µg/mL

###

experiment: Solubility screen for Form A in organic solvents; type: physicochemical; details: organic solvent or mixture, thermodynamic from solid, in a number of solvents; read-out: Solubility (highly soluble)
Outcome Measure: solubility

Please supply the value of reported solubility for the item CS(=O)(=O)c1ccc(Oc2cc(F)cc(C#N)c2)c2c1[C@H](O)C(F)(F)C2 [Form A]
> 100 mg/mL

###

assay: Solubility screen for Form A in organic solvents; format: physicochemical; settings: organic solvent or mixture, thermodynamic from solid, Ethyl acetate; read-out: Solubility
Outcome Measure: solubility (mg/mL)
Only the number, expressed in mg/mL, is required.

Please supply the value of reported solubility for the item CS(=O)(=O)c1ccc(Oc2cc(F)cc(C#N)c2)c2c1[C@H](O)C(F)(F)C2 [Form A]
160

###

assay: Solubility screen for Form A in organic solvents; format: physicochemical; conditions: organic solvent or mixture, thermodynamic from solid, Heptane; read-out: Solubility
Outcome Measure: solubility

Please supply the value of reported solubility for the item CS(=O)(=O)c1ccc(Oc2cc(F)cc(C#N)c2)c2c1[C@H](O)C(F)(F)C2 [Form A]
< 2000 µg/mL

###

test: Solubility screen for Form A in organic solvents; assay type: physicochemical; conditions: organic solvent or mixture, thermodynamic from solid, Methanol; read-out: Solubility
Outcome Measure: solubility (mg/mL)
Only the number, expressed in mg/mL, is required.

Please supply the value of reported solubility for the item CS(=O)(=O)c1ccc(Oc2cc(F)cc(C#N)c2)c2c1[C@H](O)C(F)(F)C2 [Form A]
90

###

assay: Aqueous solubility (24 h mixing, filtrate by HPLC); assay type: physicochemical; settings: pH 1.2, simulated gastric fluid, thermodynamic from solid, pH 1.2, read-out: Aqueous Solubility pH 1.2
Outcome Measure: solubility at 24 h (mg/mL)
Only the number, expressed in mg/mL, is required.

Please supply the value of reported solubility at 24 h for the item CS(=O)(=O)c1ccc(Oc2cc(F)cc(C#N)c2)c2c1[C@H](O)C(F)(F)C2 [Form A]
0.029

###

assay: Solubility screen for Form A in organic solvents; type: physicochemical; details: organic solvent or mixture, thermodynamic from solid, Methylethyl ketone; read-out: Solubility
Outcome Measure: solubility

Please supply the value of reported solubility for the item CS(=O)(=O)c1ccc(Oc2cc(F)cc(C#N)c2)c2c1[C@H](O)C(F)(F)C2 [Form A]
> 200 mg/mL

###

assay: Solubility screen for Form A in organic solvents; assay type: physicochemical; conditions: organic solvent or mixture, thermodynamic from solid, tert-Butylmethyl ether; read-out: Solubility
Outcome Measure: solubility (mg/mL)
Only the number, expressed in mg/mL, is required.

Please supply the value of reported solubility for the item CS(=O)(=O)c1ccc(Oc2cc(F)cc(C#N)c2)c2c1[C@H](O)C(F)(F)C2 [Form A]
35

###

assay: Solubility screen for Form A in organic solvents; assay type: physicochemical; details: aqueous with cosolvent or surfactant or cyclodextrin, thermodynamic from solid, THF: Water (50%); read-out: Solubility
Outcome Measure: solubility (mg/mL)
Only the number, expressed in mg/mL, is required.

Please supply the value of reported solubility for the item CS(=O)(=O)c1ccc(Oc2cc(F)cc(C#N)c2)c2c1[C@H](O)C(F)(F)C2 [Form A]
100

###

Experiment: Solubility screen for Form A in organic solvents
Format: physicochemical
Conditions: 40 °C, organic solvent or mixture, thermodynamic from solid, Diisopropyl ether; solubility observed at 40° C.; read-out: Solubility
Procedure: A solubility screen for Form A was conducted in 24 solvents. About 5 mg of Form A was placed in each of 24 vials and 5 volume aliquots of the appropriate solvent systems listed in Table 1 were added to the appropriate vial. Between each addition, the mixture was checked for dissolution by visual inspection, and if no dissolution was apparent, the mixture was heated to ca. 40° C. and checked again. […]
Outcome Measure: solubility

Please supply the value of reported solubility for the item CS(=O)(=O)c1ccc(Oc2cc(F)cc(C#N)c2)c2c1[C@H](O)C(F)(F)C2 [Form A]
> 2000 µg/mL

###

experiment: Solubility screen for Form A in organic solvents; assay type: physicochemical; details: organic solvent or mixture, thermodynamic from solid, Acetone; read-out: Solubility
Outcome Measure: solubility

Please supply the value of reported solubility for the item CS(=O)(=O)c1ccc(Oc2cc(F)cc(C#N)c2)c2c1[C@H](O)C(F)(F)C2 [Form A]
> 200 mg/mL

###

test: Aqueous solubility (24 h mixing, filtrate by HPLC); format: physicochemical; settings: fessif, thermodynamic from solid, Fed State Simulated Small Intestinal Fluid, read-out: Aqueous Solubility FeSSIF
Outcome Measure: solubility at 24 h (µg/mL)
Only the number, expressed in µg/mL, is required.

Please supply the value of reported solubility at 24 h for the item CS(=O)(=O)c1ccc(Oc2cc(F)cc(C#N)c2)c2c1[C@H](O)C(F)(F)C2 [Form A]
86

###

assay: Aqueous solubility (24 h mixing, filtrate by HPLC); assay type: physicochemical; conditions: pH 6.5, aqueous buffer, thermodynamic from solid, pH 6.5, read-out: Aqueous Solubility pH 6.5
Outcome Measure: solubility at 24 h (µg/mL)
Only the number, expressed in µg/mL, is required.

Please supply the value of reported solubility at 24 h for the item CS(=O)(=O)c1ccc(Oc2cc(F)cc(C#N)c2)c2c1[C@H](O)C(F)(F)C2 [Form A]
25

###

assay: Solubility screen for Form A in organic solvents; format: physicochemical; conditions: organic solvent or mixture, thermodynamic from solid, Isopropyl acetate; read-out: Solubility
Outcome Measure: solubility (mg/mL)
Only the number, expressed in mg/mL, is required.

Please supply the value of reported solubility for the item CS(=O)(=O)c1ccc(Oc2cc(F)cc(C#N)c2)c2c1[C@H](O)C(F)(F)C2 [Form A]
90

###

test: Solubility screen for Form A in organic solvents; assay type: physicochemical; conditions: aqueous with cosolvent or surfactant or cyclodextrin, thermodynamic from solid, Ethanol: Water (50%); read-out: Solubility
Outcome Measure: solubility

Please supply the value of reported solubility for the item CS(=O)(=O)c1ccc(Oc2cc(F)cc(C#N)c2)c2c1[C@H](O)C(F)(F)C2 [Form A]
< 2000 µg/mL

###

test: Solubility screen for Form A in organic solvents; format: physicochemical; settings: organic solvent or mixture, thermodynamic from solid, Dimethylsulfoxide; read-out: Solubility
Outcome Measure: solubility
# do not omit the unit; it follows the number

Please supply the value of reported solubility for the item CS(=O)(=O)c1ccc(Oc2cc(F)cc(C#N)c2)c2c1[C@H](O)C(F)(F)C2 [Form A]
160 mg/mL

###

assay: Solubility screen for Form A in organic solvents; format: physicochemical; settings: organic solvent or mixture, thermodynamic from solid, 2-Propanol; read-out: Solubility
Outcome Measure: solubility (µg/mL)
Only the number, expressed in µg/mL, is required.

Please supply the value of reported solubility for the item CS(=O)(=O)c1ccc(Oc2cc(F)cc(C#N)c2)c2c1[C@H](O)C(F)(F)C2 [Form A]
9000

###

Test: Solubility screen for Form A in organic solvents
Assay type: physicochemical
Conditions: organic solvent or mixture, thermodynamic from solid, N-Methyl-2-pyrrolidone; read-out: Solubility
Description: A solubility screen for Form A was conducted in 24 solvents. About 5 mg of Form A was placed in each of 24 vials and 5 volume aliquots of the appropriate solvent systems listed in Table 1 were added to the appropriate vial. Between each addition, the mixture was checked for dissolution by visual inspection, and if no dissolution was apparent, the mixture was heated to ca. 40° C. and checked again. […]
Outcome Measure: solubility

Please supply the value of reported solubility for the item CS(=O)(=O)c1ccc(Oc2cc(F)cc(C#N)c2)c2c1[C@H](O)C(F)(F)C2 [Form A]
130 mg/mL

###

experiment: Solubility screen for Form A in organic solvents; format: physicochemical; details: organic solvent or mixture, thermodynamic from solid, Toluene; read-out: Solubility
Outcome Measure: solubility

Please supply the value of reported solubility for the item CS(=O)(=O)c1ccc(Oc2cc(F)cc(C#N)c2)c2c1[C@H](O)C(F)(F)C2 [Form A]
> 2000 µg/mL

###

test: Solubility screen for Form A in organic solvents; format: physicochemical; conditions: organic solvent or mixture, thermodynamic from solid, Ethanol; read-out: Solubility
Outcome Measure: solubility (mg/mL)
Only the number, expressed in mg/mL, is required.

Please supply the value of reported solubility for the item CS(=O)(=O)c1ccc(Oc2cc(F)cc(C#N)c2)c2c1[C@H](O)C(F)(F)C2 [Form A]
60

Source of measurements: patent US20180049995A1
